Test system: NCI-H460 lung
Experiment summary: NCI-60 one-dose screen, 48 h
Assay context: 10 µM unless noted
Compounds without any hit were thinned out: in the full panel of roughly 83,000, 20% have a hit. Activity calls are given as the source filed them. The calls were made as follows: active = growth percent below 10; inactive = the rest.
Outcome codes: active, inactive

Molecule	Class label
CCOC(=O)C(C(C)=O)c1nc2sc3cc(Cl)c(Cl)cc3n2c(=O)c1C#N (stereo not given)	inactive
O=[N+]([O-])c1cc(CCl)ccc1OCCBr	inactive
Cc1ccc2c(n1)C(=O)C(Cl)=C(Nc1ccc(N3CCN(C)CC3)cc1)C2=O	inactive
CC(C)C1=NOC(=O)C1=Cc1cn(-c2ccccc2)nc1-c1ccccc1	inactive
O=C(Nc1ccccc1)Nc1ccc(C(=O)/C=C/c2ccc(N3CCCC3)cc2)cc1	inactive
COc1ccc2c(c1)C(C)Cc1c(ncnc1-n1cnc3ccccc31)N2C (stereo not given)	inactive
C[n+]1c(-c2ccccc2)c2cc(N)ccc2c2ccccc21	inactive
CCCCCCSc1ncnc2nc[nH]c12	inactive
COc1cc2c(=O)[nH]c3cc([N+](=O)[O-])ccc3c2cc1[N+](=O)[O-]	inactive
CC(C)=CCC[C@](C)(O)[C@H]1CC[C@]2(C)[C@@H]1CC[C@@H]1[C@@]3(C)CC[C@H](OC(=O)CCC(=O)O)C(C)(C)[C@@H]3CC[C@]12C	active
COc1ccc(OC)c([N+](=O)[O-])c1C(=O)CNC(C)=O	inactive
O=C(CCN1CCCCC1)c1ccc(Cl)cc1	inactive
O=C(CCNCc1ccccc1)c1ccccc1	inactive
CC(=O)OC[C@]12CC[C@@H]([C@@H](C)C(N)=O)[C@@H]1[C@H]1CC[C@@H]3[C@@]4(C)CC[C@H](OC(C)=O)C(C)(C)[C@@H]4CC[C@@]3(C)[C@]1(C)CC2	active
CN(C)c1cc(NN=C(c2ccc(O)cc2)c2ccc(O)cc2)c([N+](=O)[O-])cc1[N+](=O)[O-]	inactive
COc1ccc(/C=C(/C(=O)c2ccc(Cl)cc2)C(=O)C(F)(F)F)cc1	inactive
[2H]C1([2H])CCN(C(=O)C2CC2)c2cc(NS(=O)(=O)c3ccc(-c4cccc(C(N)=O)c4)cc3)ccc21	inactive
COCc1nc2ccccc2[nH]1	inactive
NC(=O)CC1C=CCC1 (stereo not given)	inactive
Cc1ccc(S(=O)(=O)NCCCNc2nccc(-c3c(-c4cccc(F)c4)nc4occn34)n2)cc1	inactive

* * *

Tested on: DU-145 prostate
Experiment summary: NCI-60 one-dose screen, 48 h
Assay context: 10 µM unless noted
This is part of a sample that, as a whole, favours compounds with a hit. Of some 83,000 tested, about 20% had one in any assay. The source made the active and inactive calls. How the source made its calls: active means growth percent below 10; inactive means the rest.
Outcomes: active, inactive

Molecule	Class label
CC1Cc2c(Cl)ncnc2N(C)c2ccccc21 (centres undefined)	inactive
O=C(CCCSc1nc(-c2ccccc2)cc(-c2ccccc2)n1)NO	inactive
COc1cc(NN=C(c2ccc(O)cc2)c2ccc(O)cc2)c([N+](=O)[O-])cc1[N+](=O)[O-]	inactive
O=C1CN(Cc2ccc(C(=O)NO)cc2)C(=O)[C@@H](Cc2ccccc2)N1	inactive
CC[C@]12C=CCN3CC[C@@]4(c5ccc(OC)cc5N(C)[C@H]4[C@@](O)(C(=O)OC)[C@@H]1OC(=O)CCC(=O)N[C@H](Cc1c[nH]c4ccccc14)C(=O)OC)[C@@H]32	active
CSc1cccc([N+](=O)[O-])c1	inactive
Nc1cc(Cl)cc2cccnc12	inactive
CCc1ccc(NC(=O)N[C@@H](Cc2cc(F)cc(F)c2)C(=O)N[C@@H]2C(=O)N3C[C@H](O)C[C@H]3C(=O)N3CCOC[C@H]3C(=O)N[C@@H](C)C(=O)N3C[C@H](C)C[C@H]3C(=O)O[C@H]2C)cc1	inactive
Clc1ccc2nc(-c3ccc(-c4ccc(/C=N/NC5=NCCN5)cc4)s3)cn2c1	inactive

Reference for the values: PubChem BioAssay (NCI)
